Reported values of log10(IC50) for individual entries
# Tested on: rat platelet
# Assay Method Text: Inhibitory activity of aggregation in rat platelet
# Format: cell-based
# Study Conditions: rat platelet rich plasma, arachidonic acid (final concentration 0.5 mM) as inducer; read-out: C: Inhibitory activity of aggregation in rat platelet (IC50; μM)
Where a name gives a salt, the structure may show the parent alone.
Hi team, quick reminder: these entries are log10 of IC50 (µM).

Example results:
>  <Molecule>
O=C(O)CCc1cccc(NC(=O)C(COC2CCCCO2)NS(=O)(=O)c2ccc(Cl)cc2)c1 (racemic) [Example 46]

>  <log10(IC50)>
0.23

$$$$
>  <Molecule>
O=C(O)Cc1ccc(NC(=O)C(Cn2ccnc2)NS(=O)(=O)c2ccc(Cl)cc2)cc1 (racemic) [Example 94, hydrochloride]

>  <log10(IC50)>
0.23

$$$$
>  <Molecule>
O=C(O)CCc1ccc(NC(=O)C(CCc2ccccc2)NS(=O)(=O)c2ccc(Cl)cc2)cc1 (racemic) [Example 174]

>  <log10(IC50)>
0.72

$$$$

Task item: Which log10(IC50) is listed for O=C(O)Cc1ccc(NC(=O)C(COC2CCCCO2)NS(=O)(=O)c2ccc3ccccc3c2)cc1 (racemic) [Example 60] ?
Reply: 0.72

Task item: Which log10(IC50) is listed for O=C(O)CCCCCNC(=O)C(COC1CCCCO1)NS(=O)(=O)c1ccc(Cl)cc1 (racemic) [Example 49] ?
Reply: -0.40

Task item: Which log10(IC50) is listed for O=C(O)Cc1ccc(NC(=O)C(Cn2ccnc2)NS(=O)(=O)c2ccc(Br)cc2)cc1 (racemic) [Example 104] ?
Reply: 0.23

Task item: Which log10(IC50) is listed for CCCCC(NS(=O)(=O)c1ccc(Cl)cc1)C(=O)Nc1ccc(CC(=O)O)cc1 (racemic) [Example 222] ?
Reply: -0.77

Task item: Which log10(IC50) is listed for O=C(O)Cc1ccc(NC(=O)C(CC2CCCCC2)NS(=O)(=O)c2ccc(Cl)cc2)cc1 (racemic) [Example 260] ?
Reply: -0.05

Task item: Which log10(IC50) is listed for O=C(O)c1ccc(NC(=O)[C@H](Cc2ccccc2)NS(=O)(=O)c2ccc(Br)cc2)cc1 [Example 256] ?
Reply: -0.77

Task item: Which log10(IC50) is listed for CCSCC[C@H](NS(=O)(=O)c1ccc(Br)cc1)C(=O)Nc1ccc(CC(=O)O)cc1 [Example 245] ?
Reply: -1.26

====

# Tested on: rat platelet
# Assay Method Text: Inhibitory activity of aggregation in rat platelet
# Type: cell-based
# Study Conditions: rat platelet rich plasma, arachidonic acid (final concentration 0.5 mM) as inducer; read-out: C: Inhibitory activity of aggregation in rat platelet (IC50; μM)
Counter-ions that a name gives are not always drawn.
Quantity Name: IC50 (µM)
Answer in µM, number only, no unit symbol.

>  <Molecule>
CCCC[C@H](NS(=O)(=O)c1ccc(Cl)cc1)C(=O)Nc1ccc(CCC(=O)O)cc1

>  <Assay Target>
rat platelet

>  <IC50, µM>
0.56

$$$$
>  <Molecule>
COc1ccc(S(=O)(=O)NC(COC2CCCCO2)C(=O)Nc2ccc(CC(=O)O)cc2)cc1 (racemic)

>  <Assay Target>
rat platelet

>  <IC50, µM>
0.53

$$$$
>  <Molecule>
O=C(O)CCCCNC(=O)C(COc1cccnc1)NS(=O)(=O)c1ccc(Cl)cc1 (racemic) [Example 119, hydrochloride]

>  <Assay Target>
rat platelet

>  <IC50, µM>
1.7

$$$$
>  <Molecule>
CSCC[C@H](NS(=O)(=O)c1ccc(Cl)cc1)C(=O)Nc1ccc(CCC(=O)O)cc1

>  <Assay Target>
rat platelet

>  <IC50, µM>
0.3

$$$$
>  <Molecule>
O=C(O)Cc1ccc(NC(=O)C(COc2cccc(Cl)c2)NS(=O)(=O)c2ccc(I)cc2)cc1 (racemic)

>  <Assay Target>
rat platelet

>  <IC50, µM>
1.7

$$$$
>  <Molecule>
CCCCC(NS(=O)(=O)c1ccc(Br)cc1)C(=O)Nc1ccc(CC(=O)O)cc1 (racemic)

>  <Assay Target>
rat platelet

>  <IC50, µM>
0.53

$$$$
>  <Molecule>
O=C(O)CCc1ccc(NC(=O)C(Cc2ccccc2)NS(=O)(=O)c2ccc(Cl)cc2)cc1 (racemic)

>  <Assay Target>
rat platelet

>  <IC50, µM>
0.18

$$$$
>  <Molecule>
O=C(O)c1cccc(NC(=O)[C@H](Cc2ccccc2)NS(=O)(=O)c2ccc(Br)cc2)c1

>  <Assay Target>
rat platelet

>  <IC50, µM>
0.17

$$$$
>  <Molecule>
O=C(O)Cc1ccc(NC(=O)C(CCOC2CCCCO2)NS(=O)(=O)c2ccc(Cl)cc2)cc1 (racemic)

>  <Assay Target>
rat platelet

>  <IC50, µM>
1.7

$$$$

Task item: Which IC50 is listed for CCC(NS(=O)(=O)c1ccc(Cl)cc1)C(=O)Nc1ccc(CC(=O)O)cc1 (racemic) ?
Reply: 0.53

====

# Assay Target: thromboxane A2 (TxA2) receptor (Cavia porcellus)
# Construct: to obtain washed platelets; from tissue; host or cells: washed platelets of male Hartley guinea pigs
# Assay Method Text: TxA2 antagonist action by binding assay
# Study Conditions: washed guinea pig platelets, 1 nM [3H]-SQ29,548, 45 minutes at 25° C.
Structures can show the parent of a compound that is named as a salt.
Quantity Name: IC50 (µM)
Answer in µM, number only, no unit symbol.

>  <Compound>
O=C(O)Cc1ccc(NC(=O)C(COc2ccc(Cl)cc2)NS(=O)(=O)c2ccc(I)cc2)cc1 (racemic)

>  <Measurement Unit>
µM

>  <IC50>
0.019

$$$$
>  <Compound>
O=C(O)Cc1ccc(NC(=O)C(COC2CCCCO2)NS(=O)(=O)c2ccc(I)cc2)cc1 (racemic)

>  <Measurement Unit>
µM

>  <IC50>
0.016

$$$$
>  <Compound>
O=C(O)c1cccc(NC(=O)[C@H](Cc2ccccc2)NS(=O)(=O)c2ccc(Br)cc2)c1

>  <Measurement Unit>
µM

>  <IC50>
0.0087

$$$$
>  <Compound>
O=C(O)CCc1ccc(NC(=O)C(Cn2ccnc2)NS(=O)(=O)c2ccc(Cl)cc2)cc1 (racemic) [Example 95, hydrochloride]

>  <Measurement Unit>
µM

>  <IC50>
1.5

$$$$
>  <Compound>
O=C(O)Cc1ccc(NC(=O)C(COC2CCCCO2)NS(=O)(=O)c2ccc(F)cc2)cc1 (racemic)

>  <Measurement Unit>
µM

>  <IC50>
0.2

$$$$

Task item: Which IC50 is listed for "O=C(O)Cc1ccc(NC(=O)[C@H](Cc2ccccc2)NS(=O)(=O)c2ccc(Cl)cc2)cc1" ?
Reply: 0.012

Task item: Which IC50 is listed for "CSCC[C@H](NS(=O)(=O)c1ccc(Br)cc1)C(=O)Nc1ccc(CCC(=O)O)cc1" ?
Reply: 0.099

====

# Assay Target: thromboxane A2 (TxA2) receptor (Cavia porcellus, UniProt A0A286Y4I8)
# Construct: to obtain washed platelets; from tissue; host or cells: washed platelets of male Hartley guinea pigs
# Sequence (A0A286Y4I8 1-347): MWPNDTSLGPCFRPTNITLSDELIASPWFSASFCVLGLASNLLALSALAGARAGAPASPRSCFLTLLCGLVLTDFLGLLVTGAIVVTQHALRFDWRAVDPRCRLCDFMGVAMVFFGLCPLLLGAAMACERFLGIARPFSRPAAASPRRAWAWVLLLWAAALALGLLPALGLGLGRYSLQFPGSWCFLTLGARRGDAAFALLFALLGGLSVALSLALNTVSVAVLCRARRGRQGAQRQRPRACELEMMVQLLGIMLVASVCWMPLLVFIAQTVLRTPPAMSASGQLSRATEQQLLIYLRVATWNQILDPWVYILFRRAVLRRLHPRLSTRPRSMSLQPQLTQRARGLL
# Assay Method Text: TxA2 antagonist action by binding assay
# Study Conditions: washed guinea pig platelets, 1 nM [3H]-SQ29,548, 45 minutes at 25° C.
Structures can show the parent of a compound that is named as a salt.
Reported values of IC50 for individual entries
Answer in µM, number only, no unit symbol.

Example results:
>  <Compound>
O=C(O)CCc1ccc(NC(=O)[C@H](Cc2ccccc2)NS(=O)(=O)c2ccc(Cl)cc2)cc1 [Example 250]

>  <Assay Target>
thromboxane A2 (TxA2) receptor (Cavia porcellus, UniProt A0A286Y4I8)

>  <IC50 [µM]>
0.029

$$$$
>  <Compound>
O=C(O)Cc1ccc(NC(=O)C(CCc2ccccc2)NS(=O)(=O)c2ccc(Cl)cc2)cc1 (racemic) [Example 172]

>  <Assay Target>
thromboxane A2 (TxA2) receptor (Cavia porcellus, UniProt A0A286Y4I8)

>  <IC50 [µM]>
0.072

$$$$
>  <Compound>
O=C(O)Cc1ccc(NC(=O)C(COc2ccc(Cl)cc2)NS(=O)(=O)c2ccc(Cl)cc2)cc1 (racemic) [Example 130]

>  <Assay Target>
thromboxane A2 (TxA2) receptor (Cavia porcellus, UniProt A0A286Y4I8)

>  <IC50 [µM]>
0.16

$$$$
>  <Compound>
O=C(O)Cc1ccc(NC(=O)C(COc2cccnc2)NS(=O)(=O)c2ccc(Cl)cc2)cc1 (racemic) [Example 116, hydrochloride]

>  <Assay Target>
thromboxane A2 (TxA2) receptor (Cavia porcellus, UniProt A0A286Y4I8)

>  <IC50 [µM]>
0.5

$$$$
>  <Compound>
O=C(O)Cc1ccc(NC(=O)C(COc2ccccc2)NS(=O)(=O)c2ccc(Cl)cc2)cc1 (racemic) [Example 129]

>  <Assay Target>
thromboxane A2 (TxA2) receptor (Cavia porcellus, UniProt A0A286Y4I8)

>  <IC50 [µM]>
0.72

$$$$
>  <Compound>
CSCC[C@H](NS(=O)(=O)c1ccc(Cl)cc1)C(=O)Nc1ccc(CC(=O)O)cc1 [Example 234]

>  <Assay Target>
thromboxane A2 (TxA2) receptor (Cavia porcellus, UniProt A0A286Y4I8)

>  <IC50 [µM]>
0.052

$$$$

// below: IC50 requested for another compound
Task item: Hi! What's the reported IC50 for O=C(O)Cc1ccc(NC(=O)C(COc2ccccc2)NS(=O)(=O)c2ccc(F)cc2)cc1 (racemic) [Example 136] on thromboxane A2 (TxA2) receptor (Cavia porcellus, UniProt A0A286Y4I8)?
Reply: 0.15
